Reference source for all entries: patent US20250264459A1

test system: human iPSC-CM (iCell Cardiomyocytes2); assay: Spent-media metabolomics (LC-MS) cardiotoxicity prediction models, blinded test set; conditions: cardiotoxic vs non-cardiotoxic, at the Exposure (μM) listed per compound in Table 3, model from confirmed metabolites and viability
metric: Global Tox Model Prediction

molecule: OC[C@H]1O[C@@](CO)(O[C@H]2O[C@H](CO)[C@@H](O)[C@H](O)[C@H]2O)[C@@H](O)[C@@H]1O [Sucrose]
Global Tox Model Prediction: −
//
molecule: CCCc1nn(C)c2c(=O)[nH]c(-c3cc(S(=O)(=O)N4CCN(C)CC4)ccc3OCC)nc12 [Sildenafil]
Global Tox Model Prediction: −
//
molecule: CC[C@H](OC(C)=O)C(C[C@H](C)N(C)C)(c1ccccc1)c1ccccc1 [Levomethadyl Acetate]
Global Tox Model Prediction: +
//
molecule: CC(=O)Oc1ccccc1C(=O)O [Acetylsalicylic Acid]
Global Tox Model Prediction: −
//
molecule: Cc1cn(-c2cc(NC(=O)c3ccc(C)c(Nc4nccc(-c5cccnc5)n4)c3)cc(C(F)(F)F)c2)cn1 [Nilotinib]
Global Tox Model Prediction: +

Problem: What value of Global Tox Model Prediction has been reported for the following molecule? CS(=O)(=O)OCCCCOS(C)(=O)=O [Busulfan]
Solution: +

Problem: Another molecule to check: CC(C)NCC(O)c1ccc(NS(C)(=O)=O)cc1 (stereo not drawn) [Sotalol]
Solution: +

Problem: Another molecule to check: OC[C@@H](O)[C@H](O)[C@@H](O)CO [Xylitol]
Solution: −

Problem: Another molecule to check: CC(C)COCC(CN(Cc1ccccc1)c1ccccc1)N1CCCC1 (stereo not drawn) [Bepridil]
Solution: +
